Biological target: Glutathionylspermidine synthase (Crithidia fasciculata, UniProt P90518)
Sequence (P90518 whole entry): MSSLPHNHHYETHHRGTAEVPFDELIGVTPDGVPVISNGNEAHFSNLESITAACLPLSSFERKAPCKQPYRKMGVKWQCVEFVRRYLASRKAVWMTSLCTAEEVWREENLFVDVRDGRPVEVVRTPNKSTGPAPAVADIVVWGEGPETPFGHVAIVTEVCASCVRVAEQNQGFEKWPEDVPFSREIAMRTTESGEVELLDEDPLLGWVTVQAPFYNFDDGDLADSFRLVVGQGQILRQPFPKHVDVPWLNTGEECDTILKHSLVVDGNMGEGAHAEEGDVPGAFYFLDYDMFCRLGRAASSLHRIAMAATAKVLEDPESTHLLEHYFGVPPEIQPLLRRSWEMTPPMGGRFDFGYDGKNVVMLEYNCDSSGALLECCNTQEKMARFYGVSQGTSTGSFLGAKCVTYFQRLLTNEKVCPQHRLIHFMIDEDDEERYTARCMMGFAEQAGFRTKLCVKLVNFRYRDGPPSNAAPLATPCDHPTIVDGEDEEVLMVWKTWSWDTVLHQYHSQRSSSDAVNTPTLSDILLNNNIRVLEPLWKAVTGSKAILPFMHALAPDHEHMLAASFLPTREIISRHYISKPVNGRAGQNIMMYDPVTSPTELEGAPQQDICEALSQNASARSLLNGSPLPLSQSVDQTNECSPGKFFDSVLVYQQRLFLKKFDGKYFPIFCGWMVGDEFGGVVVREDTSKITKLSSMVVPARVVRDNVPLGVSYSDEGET
Assay: Inhibitory activity against amidase free Glutathionylspermidine Synthetase mutant (C79A)
pIC50: −log10 of the molar value. Where a SMILES comes first, the peptide text is derived from it.
PARAMETER_MEASURED: pIC50

Note to self: pIC50 of CC(C)C[C@H](NC(=O)CC[C@H](N)C(=O)O)C(=O)NCC(N)=O (HELM PEPTIDE1{[gGlu].L.G.[am]}$$$$V2.0) with Glutathionylspermidine synthase (Crithidia fasciculata, UniProt P90518) was < 5.70
